The origin of these recorded values is the supplement of paper PMC10567573.

Give measured protein stability index for each item. Keep answers brief.
B1: IQUB (parent)
chain: EADYEDDSKIAFLMQLQDIQYLTE

# Variants of: B1
# Assay Name: protein stability index of a GFP-peptide fusion (GPS, HEK-293T) (PSI 1-6); higher = more stable;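 further: lentivirally expressed fusions sorted by FACS into six bins by GFP to DsRed ratio, PSI derived from sequencing read proportions per bin multiplied by bin number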
# Condition Summary: c terminus: a fixed tail appended
Lab note: write the figure by itself, no unit.

Value of protein stability index reported for the variant YADYEDDSKIAFLMQLQDIQYLTE [E1Y] is 2.23

Per the records, this variant ( EADYEDDSKLAFLMQLQDIQYLTE [I10L] ) has protein stability index equal to 3

Data point: EADYEDDSKIAFLMQLQTIQYLTE [D18T] ; protein stability index = 1.72

The variant listed as EADYEDCSKIAFLMQLQDIQYLTE [D7C] has a reported protein stability index of 1.88

Per the records, this variant ( EADYEDDYKIAFLMQLQDIQYLTE [S8Y] ) has protein stability index equal to 2.34

The variant listed as EADYDDDSKIAFLMQLQDIQYLTE [E5D] shows protein stability index equal to 3.42

variant EADYEDDSEIAFLMQLQDIQYLTE [K9E] , protein stability index observed: 3.39

Notebook: EADSEDDSKIAFLMQLQDIQYLTE [Y4S] , protein stability index read as 3.65

Reported protein stability index ( EADYEDDSKIAFLMQLQDIQYLGE [T23G] ) = 3.19

Consider TADYEDDSKIAFLMQLQDIQYLTE [E1T] . Its measured protein stability index is 2.47

For record EADYEDDSKIAFMMQLQDIQYLTE [L13M] the listed protein stability index is 3.26
